system-under-test: BTK-WT (Homo sapiens)
Construct: purified from insect cells as a full-length construct containing an N-terminal 6X-His tag; His6 (N); made in house; host or cells: insect cells (baculovirus Sf21 in Method B)
Sequence (Q06187 whole entry): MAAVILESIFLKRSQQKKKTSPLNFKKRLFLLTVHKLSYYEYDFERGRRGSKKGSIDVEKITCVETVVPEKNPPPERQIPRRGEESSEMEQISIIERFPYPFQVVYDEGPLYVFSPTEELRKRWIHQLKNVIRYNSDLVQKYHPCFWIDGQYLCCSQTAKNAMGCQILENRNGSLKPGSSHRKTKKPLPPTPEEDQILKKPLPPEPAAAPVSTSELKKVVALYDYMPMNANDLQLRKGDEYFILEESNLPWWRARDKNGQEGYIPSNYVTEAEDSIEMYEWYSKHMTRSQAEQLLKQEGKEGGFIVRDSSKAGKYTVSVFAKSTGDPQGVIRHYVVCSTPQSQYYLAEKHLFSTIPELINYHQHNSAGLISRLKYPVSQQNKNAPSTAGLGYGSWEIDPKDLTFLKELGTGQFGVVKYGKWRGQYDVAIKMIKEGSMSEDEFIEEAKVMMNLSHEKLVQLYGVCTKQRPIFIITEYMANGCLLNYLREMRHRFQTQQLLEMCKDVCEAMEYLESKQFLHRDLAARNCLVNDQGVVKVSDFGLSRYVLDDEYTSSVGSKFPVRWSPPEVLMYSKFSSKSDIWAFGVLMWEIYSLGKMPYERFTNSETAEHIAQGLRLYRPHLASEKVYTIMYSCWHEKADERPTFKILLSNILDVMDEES
assay-info: Btk in vitro inhibitory activity (one of Method A TR-FRET, Method B electrophoretic mobility shift, Method C radiometric filter binding)
Format: biochemical
particulars: Table 10, Formula A-I; read-out: BTK-WT (IC50)
Counter-ions that a name gives are not always drawn.
value-kind: IC50

[[record]]
compound = "NC(=O)c1ncc(N2CCC[C@@H](NC(=O)Nc3ccccc3)C2)nc1Nc1ccc(C2CCN(C3CCCC3)CC2)cc1 [Example A-2, hydrochloride]"
measured_value = "≤ 100 nM"

[[record]]
compound = "Cc1cc(Nc2nc(N3CCC[C@H](NC(=O)c4ccc(N(C)C)cc4)[C@H]3CO)cnc2C(N)=O)sn1 [Example A-70]"
measured_value = "100 to 1000 nM"


Shift focus to the following entry.
stdin: I would be grateful if you could share the reported IC50 for Cc1cccc(NC(=O)N[C@@H]2CCCN(c3cnc(C(N)=O)c(Nc4ccc(C5CCN(C6CCCC6)CC5)cc4)n3)C2)c1 [Example A-4, hydrochloride] .
stdout: ≤ 100 nM
